Tested on: SK-MEL-2 melanoma
Assay: NCI tumour cell line growth inhibition, 48 h
Property label: log10 of TGI (log10 of the value in µM)

- [CH3][Sn]([CH3])([CH3])[S]C(=S)N1CCOCC1: 0.68
- COc1cc(C(=O)c2cnc(-c3c[nH]c4cccc(C)c34)[nH]2)cc(OC)c1OC: 1.49
- Nc1nc(Sc2ccc([N+](=O)[O-])c3nonc23)c2[nH]cnc2n1: 0.80
- CC(=O)c1csc2c1C(=O)c1ccccc1C2=O: 1.03
- COc1ccc(/C=C/C(=O)c2c(-c3ccccc3)nn(C)c(=O)c2N2CC2C)cc1 (stereo unspecified): 1.68
- CCCCCCCCCCCC1N=C(N)N=C(N)N1c1cccc(Br)c1 (stereo unspecified): 0.48
- Cc1nc2ccc(NCCN(C)C)c3c(=O)c4ccccc4n1c23: 1.27
- CCN(CC)CCOC(COc1cc(C)cc(C)c1)COc1cc(C)cc(C)c1: 1.41
- COc1ccc2nc3ccccc3c(NCCNCCO)c2c1: 0.45
- Cc1ccc(S(=O)(=O)OC[C@@]2(C)CC[C@]3(C)CC[C@]4(C)C(=C3C2)C=C[C@@H]2[C@@]3(C)CCCNC(C)(C)[C@@H]3CC[C@]24C)cc1: 0.55
- O=C(Nc1ccn(C2CC(O)C(COC(c3ccccc3)(c3ccccc3)c3ccccc3)O2)c(=O)n1)c1ccccc1 (stereo unspecified): 0.86
- CCCCCCCCCCCC/C=C\CC[C@@H](O)[C@H](O)CC[C@H](O)[C@@H]1CC[C@@H](CCCCCCCC2=C[C@H](C)OC2=O)O1: 1.52
- O=C(N/C(=C\c1ccc([N+](=O)[O-])cc1)c1nc2ccccc2s1)c1ccccc1: 1.91
- COc1cc(N=Nc2cc(Cc3ccc(N(C)C)cc3)c(N)cc2N(C)C)c2ncccc2c1: 0.62
- Clc1ccc2c(NCCNc3nc(N4CCOCC4)nc4ccccc34)ccnc2c1: 0.57
- Oc1c(Br)cc2c(c1Br)-c1c(c(O)c3c4c1=NCCC=4C=N3)NCC2: 1.42
- Cc1c2cc[n+](Cc3ccc(I)cc3)cc2c(C)c2c1[nH]c1ccccc12: 0.21
- NC(=NCCCCCCN=C(N)/N=C(\N)Nc1ccc(Cl)cc1)/N=C(\N)Nc1ccc(Cl)cc1: 0.50
- S=c1ssnc1-c1cc2ccccc2o1: 1.45
- COc1cc(C2CC(c3ccccc3)=NN2C=O)ccc1Oc1ccnc2cc(Cl)ccc12 (stereo unspecified): 1.59

###

System: HCC-2998 colon
Test: NCI tumour cell line growth inhibition, 48 h
Property label: log10 of TGI (log10 of the value in µM)

• O=c1cc(-c2cccc(OC(F)(F)F)c2)[nH]c2ccc(N3CCCC3)cc12 = -1.96
• NCCCN(CCCCN(CCCN)CCCc1ccccc1)CCCc1ccccc1 = 0.48
• Nc1nc(Sc2ccc([N+](=O)[O-])c3nonc23)c2[nH]cnc2n1 = 0.90
• CC(=O)c1csc2c1C(=O)c1ccccc1C2=O = 0.51
• O=C(Nc1ccn(C2CC(O)C(COC(c3ccccc3)(c3ccccc3)c3ccccc3)O2)c(=O)n1)c1ccccc1 (stereo not given) = 1.33
• [CH3][Sn]([CH3])([CH3])[S]C(=S)N1CCOCC1 = 1.20
• O=C1C(Cl)=C(Nc2ccc(S(=O)(=O)c3ccc(NC4=C(Cl)C(=O)c5ccccc5C4=O)cc3)cc2)C(=O)c2ccccc21 = 0.80
• O=S(=O)(c1ccccc1)N1CCCC(c2ccccc2)CC1 (stereo not given) = 1.79
• CCc1ccc2c(c1)C(=O)c1c-2n(CCCN)c(=O)c2cc(OC)c(OC)cc12 = 0.48
• CCn1cc(C(=O)O)c(=O)c2cc(F)c(N3CCN(S(=O)(=O)c4ccc(Cl)cc4Cl)CC3)cc21 = 0.71
• COC(=O)[C@@]12OC[C@]34[C@H]([C@@H](O)[C@@H]1O)[C@@]1(C)CC(=O)C(O)=C(C)[C@@H]1C[C@H]3OC(=O)[C@H](OC(=O)/C=C(\C)C(C)C)[C@@H]24 = -2.47
• Cc1ccc(NCCNCC(C)(C)O)c2c(=O)c3ccc(Cl)cc3sc12 = 0.46
• CCN(CC)c1c(C(C)(C)C)c(=O)n2ccsc2c1OC(C)=O = 1.51

###

Test system: BT-549 breast
Assay: NCI tumour cell line growth inhibition, 48 h
We begin with a simple list: items and their reported TGI.
Property label: TGI (µM)

• O=C1CCC(c2ccccc2)=NN1c1nc2ccccc2s1 = 82.5
• CC(C)(O)C1COC2=C1C(=O)c1ccccc1C2=O (configuration not stated) = 42.9
• CN(CCN)[C@H](CSSC[C@@H](c1ccccc1O)N(C)CCN)c1ccccc1O = 25
• Clc1ccc(-c2cn3c(nc4ccccc43)c(-c3ccccc3)n2)cc1 = 50.2
• Cc1ccc(-c2nc(NCCOCCOCCN)nc(N3CCN(c4ccccn4)CC3)n2)cc1 = 29.2
• O=[N+]([O-])c1cccc(/C=N/Nc2ccc3ccccc3n2)c1O = 37.9
• CC(=O)c1csc2c1C(=O)c1ccccc1C2=O = 3.01
• N[C@@H]1CCCN(c2c(Br)cnc3[nH]cc(NC(=O)C4CC4)c23)C1 = 38
• CN(C)S(=O)(=O)c1ccc2[nH]c(O)c(C3=Nc4ccccc4C3=O)c2c1 = 28.9
• CN1CCCCC1CCN1c2ccccc2Sc2ccc(Br)cc21 (configuration not stated) = 17.7

###

Test system: SW-620 colon
Assay: NCI tumour cell line growth inhibition, 48 h
Property label: TGI

- Clc1ccc(-c2cn3c(nc4ccccc43)c(-c3ccccc3)n2)cc1: > 100 µM
- O=c1c(-c2nc3ccccc3c3ccccc3c2=O)nc2ccccc2c2ccccc12: > 100 µM
- O=C(C[N+]12CN3CN(CN(C3)C1)C2)c1ccc(-c2ccccc2)cc1: 30 µM
- CCSC[C@@H]1C[C@](O)(c2ccccc2)[C@@H](c2ccccc2)O1: > 100 µM
- CC(=O)O[C@H]1[C@@H](N2CCOCC2)C[C@H]2[C@@H]3CC=C4C[C@@H](N5CCCC5)CC[C@]4(C)[C@H]3CC[C@@]21C: > 100 µM
- Cc1cc(N(CCC#N)CCC#N)ccc1/C=C(\NC(=O)/C=C/c1ccccc1)C(=O)Nc1ccccc1Cl: > 100 µM
- Cc1ccc(C)c2c1C1CCCCC3(OCCCO3)C21O (configuration not stated): > 100 µM
- CC(C)(O)C1COC2=C1C(=O)c1ccccc1C2=O (configuration not stated): 50.4 µM
- CNC(=S)N/N=C/C(C)=N/NC(=S)NC: > 100 µM
- Nc1cccc(-c2cc(=O)c3cc4c(cc3[nH]2)OCO4)c1: > 100 µM
- COCN1C(=O)[C@@H]2CCCN2C(=O)c2ccc(N)cc21: > 100 µM
- CCOP1(=O)CC(C)=C(Cl)C(OC)C1 (configuration not stated): > 100 µM
- N#C[S-].[La+3].c1ccc(-c2ccccn2)nc1.c1ccc(-c2ccccn2)nc1.c1ccc(-c2ccccn2)nc1: > 100 µM
- Brc1ccc2[nH]c3c(C4=NCCC4)nccc3c2c1: > 86.6 µM
- CC1(C)CC(O)CC(C)(C)N1O: > 100 µM
- CC(C)=CCC[C@@H](C)C1=C(O)C(N[C@H](C)c2ccccc2)=C(C)C(=O)C1=O: > 45.2 µM
- O=C(/C=C/c1ccc(O)c(O)c1)N1CCN(c2ccc(Cl)cc2)CC1: 81.4 µM
- O=S(=O)(c1ccccc1)N1CCCC(c2ccccc2)CC1 (configuration not stated): > 100 µM
- Nc1ncn([C@H]2CC(O)[C@@H](CO)S2)c(=O)n1 (some centres not stated): > 100 µM
- CC(=O)OC1CCn2c1nc1cc([N+](=O)[O-])c(C)cc12 (configuration not stated): > 100 µM
- Cc1ccc(NCCNCC(C)(C)O)c2c(=O)c3ccc(Cl)cc3sc12: 2.96 µM
- CC1(C)N=C(C(N)=O)c2[nH]cnc2N1: > 100 µM

###

Tested on: HCT-15 colon
Experiment: NCI tumour cell line growth inhibition, 48 h
We begin with a simple list: items and their reported TGI.
Property label: TGI

• S=c1ssnc1-c1cc2ccccc2o1 = 25.5 µM
• Cc1ccc(/C=c2\cc3oc(=O)c4cccc(c4-3)c2=O)cc1 = > 100 µM
• CCOC(=O)C(C)c1nc2cc(F)c(F)cc2[nH]c1=O (centres undefined) = > 100 µM
• Nc1nc(SCc2ccccc2Cl)c2ncn(C3OC(CO)C(O)C3O)c2n1 (centres undefined) = > 100 µM
• O=c1cc(-c2ccccc2)oc2ccc(Cl)cc12 = > 100 µM
• COC1C(OC(=O)c2ccc(C)[nH]2)C(O)C(Oc2ccc3c(O)c(NC(=O)c4ccc(O)c(CC=C(C)C)c4)c(=O)oc3c2Cl)OC1(C)C (centres undefined) = 38.1 µM
• O=C1NC(N2CCCC(CO)C2)=N/C1=C\c1cccs1 (centres undefined) = > 100 µM
• CC1(C)N=C(N)N=C(N)N1c1ccc(CCCC(=O)Nc2ccc(S(=O)(=O)F)cc2)cc1 = > 100 µM
• Nc1nc(Cl)c(CO)c(NCC2(CO)CCC2)n1 = > 100 µM
